# System: Mycobacterium kansasii MK CNCTC My 235/80
# protocol text: In vitro antimycobacterial evaluation
# Format: cell-based
# run conditions: 21h, IC90 value
Catalogue of MIC values
property measured: MIC (µM)

[[record]]
molecule = "O=C(N[C@H](Cc1ccccc1)C(=O)Nc1ccc(Cl)c(Cl)c1)c1cc(Cl)ccc1O"
property_measured = "MIC"
unit_text = "µM"
qualifier_symbol = ">"
experimental_result = 1000

[[record]]
molecule = "O=C(N[C@H](Cc1ccccc1)C(=O)Nc1ccc(Br)cc1)c1cc(Cl)ccc1O"
property_measured = "MIC"
unit_text = "µM"
qualifier_symbol = "="
experimental_result = 32

[[record]]
molecule = "CC(C)[C@H](NC(=O)c1ccc(Cl)cc1O)C(=O)Nc1ccc(Cl)cc1"
property_measured = "MIC"
unit_text = "µM"
qualifier_symbol = "="
experimental_result = 62.5

[[record]]
molecule = "C[C@H](NC(=O)c1cc(Cl)ccc1O)C(=O)Nc1cccc(Cl)c1"
property_measured = "MIC"
unit_text = "µM"
qualifier_symbol = ">"
experimental_result = 500

[[record]]
molecule = "CC(C)[C@@H](NC(=O)c1cc(Cl)ccc1O)C(=O)Nc1ccc(Br)cc1"
property_measured = "MIC"
unit_text = "µM"
qualifier_symbol = "="
experimental_result = 125

[[record]]
molecule = "C[C@H](NC(=O)c1cc(Cl)ccc1O)C(=O)Nc1ccc(Cl)c(Cl)c1"
property_measured = "MIC"
unit_text = "µM"
qualifier_symbol = "="
experimental_result = 500

[[record]]
molecule = "C[C@@H](NC(=O)c1cc(Cl)ccc1O)C(=O)Nc1ccc(Cl)cc1"
property_measured = "MIC"
unit_text = "µM"
qualifier_symbol = "="
experimental_result = 250

[[record]]
molecule = "O=C(N[C@H](Cc1ccccc1)C(=O)Nc1cccc(Cl)c1)c1cc(Cl)ccc1O"
property_measured = "MIC"
unit_text = "µM"
qualifier_symbol = "="
experimental_result = 62.5

[[record]]
molecule = "CC(C)[C@H](NC(=O)c1cc(Cl)ccc1O)C(=O)Nc1ccc(Br)cc1"
property_measured = "MIC"
unit_text = "µM"
qualifier_symbol = "="
experimental_result = 125

[[record]]
molecule = "O=C(N[C@@H](Cc1ccccc1)C(=O)Nc1ccc(Br)cc1)c1cc(Cl)ccc1O"
property_measured = "MIC"
unit_text = "µM"
qualifier_symbol = "="
experimental_result = 125

[[record]]
molecule = "O=C(CNC(=O)c1cc(Cl)ccc1O)Nc1ccc(Cl)c(Cl)c1"
property_measured = "MIC"
unit_text = "µM"
qualifier_symbol = "="
experimental_result = 500

[[record]]
molecule = "CC(C)[C@H](NC(=O)c1cc(Cl)ccc1O)C(=O)Nc1ccc(Cl)cc1"
property_measured = "MIC"
unit_text = "µM"
qualifier_symbol = "="
experimental_result = 62.5

[[record]]
molecule = "CC(C)[C@@H](NC(=O)c1ccc(Cl)cc1O)C(=O)Nc1ccc(Cl)cc1"
property_measured = "MIC"
unit_text = "µM"
qualifier_symbol = "="
experimental_result = 62.5

[[record]]
molecule = "O=C(N[C@H](Cc1ccccc1)C(=O)Nc1ccc(Cl)cc1)c1cc(Cl)ccc1O"
property_measured = "MIC"
unit_text = "µM"
qualifier_symbol = "="
experimental_result = 32

[[record]]
molecule = "O=C(N[C@@H](Cc1ccccc1)C(=O)Nc1ccc(Cl)c(Cl)c1)c1cc(Cl)ccc1O"
property_measured = "MIC"
unit_text = "µM"
qualifier_symbol = ">"
experimental_result = 1000

[[record]]
molecule = "CC(C)[C@@H](NC(=O)c1cc(Cl)ccc1O)C(=O)Nc1ccc(Cl)cc1"
property_measured = "MIC"
unit_text = "µM"
qualifier_symbol = "="
experimental_result = 62.5

[[record]]
molecule = "O=C(N[C@@H](Cc1ccccc1)C(=O)Nc1cccc(Cl)c1)c1cc(Cl)ccc1O"
property_measured = "MIC"
unit_text = "µM"
qualifier_symbol = "="
experimental_result = 125

[[record]]
molecule = "O=C(N[C@H](Cc1ccccc1)C(=O)Nc1ccc(Cl)cc1)c1ccc(Cl)cc1O"
property_measured = "MIC"
unit_text = "µM"
qualifier_symbol = "="
experimental_result = 32

[[record]]
molecule = "C[C@@H](NC(=O)c1ccc(Cl)cc1O)C(=O)Nc1ccc(Cl)cc1"
property_measured = "MIC"
unit_text = "µM"
qualifier_symbol = "="
experimental_result = 125

[[record]]
molecule = "O=C(CNC(=O)c1cc(Cl)ccc1O)Nc1cccc(Cl)c1"
property_measured = "MIC"
unit_text = "µM"
qualifier_symbol = "="
experimental_result = 250

[[record]]
molecule = "C[C@H](NC(=O)c1ccc(Cl)cc1O)C(=O)Nc1ccc(Cl)cc1"
property_measured = "MIC"
unit_text = "µM"
qualifier_symbol = "="
experimental_result = 125

[[record]]
molecule = "NNC(=O)c1ccncc1 [INH, isoniazid, reference compound]"
property_measured = "MIC"
unit_text = "µM"
qualifier_symbol = ">"
experimental_result = 250

[[record]]
molecule = "O=C(N[C@@H](Cc1ccccc1)C(=O)Nc1ccc(Cl)cc1)c1cc(Cl)ccc1O"
property_measured = "MIC"
unit_text = "µM"
qualifier_symbol = "="
experimental_result = 62.5

[[record]]
molecule = "CC(C)[C@@H](NC(=O)c1cc(Cl)ccc1O)C(=O)Nc1cccc(Cl)c1"
property_measured = "MIC"
unit_text = "µM"
qualifier_symbol = "="
experimental_result = 125

[[record]]
molecule = "C[C@@H](NC(=O)c1cc(Cl)ccc1O)C(=O)Nc1cccc(Cl)c1"
property_measured = "MIC"
unit_text = "µM"
qualifier_symbol = "="
experimental_result = 62.5

[[record]]
molecule = "CC(C)[C@H](NC(=O)c1cc(Cl)ccc1O)C(=O)Nc1cccc(Cl)c1"
property_measured = "MIC"
unit_text = "µM"
qualifier_symbol = "="
experimental_result = 125

[[record]]
molecule = "O=C(N[C@@H](Cc1ccccc1)C(=O)Nc1ccc(Cl)cc1)c1ccc(Cl)cc1O"
property_measured = "MIC"
unit_text = "µM"
qualifier_symbol = "="
experimental_result = 62.5

[[record]]
molecule = "CC(C)[C@H](NC(=O)c1cc(Cl)ccc1O)C(=O)Nc1ccc(Cl)c(Cl)c1"
property_measured = "MIC"
unit_text = "µM"
qualifier_symbol = "="
experimental_result = 62.5

[[record]]
molecule = "CC(C)[C@@H](NC(=O)c1cc(Cl)ccc1O)C(=O)Nc1ccc(Cl)c(Cl)c1"
property_measured = "MIC"
unit_text = "µM"
qualifier_symbol = "="
experimental_result = 62.5


###

# Tested on: Trichophyton mentagrophytes 445
# protocol text: In vitro antifungal susceptibility testing (broth microdilution)
# Format: cell-based
# run conditions: 120h, M38-A for moulds, IC50 value, read-out: MIC TM
property measured: MIC

[[record]]
structure_string = "C[C@@H](NC(=O)c1cc(Cl)ccc1O)C(=O)Nc1cccc(Cl)c1"
property_measured = "MIC"
experimental_result = "0.49 µM"

[[record]]
structure_string = "O=C(N[C@@H](Cc1ccccc1)C(=O)Nc1ccc(Cl)cc1)c1ccc(Cl)cc1O"
property_measured = "MIC"
experimental_result = "125 µM"

[[record]]
structure_string = "O=C(N[C@H](Cc1ccccc1)C(=O)Nc1cccc(Cl)c1)c1cc(Cl)ccc1O"
property_measured = "MIC"
experimental_result = "125 µM"

[[record]]
structure_string = "C[C@@H](NC(=O)c1cc(Cl)ccc1O)C(=O)Nc1ccc(Cl)cc1"
property_measured = "MIC"
experimental_result = "> 125 µM"

[[record]]
structure_string = "CC(C)[C@H](NC(=O)c1cc(Cl)ccc1O)C(=O)Nc1ccc(Cl)cc1"
property_measured = "MIC"
experimental_result = "> 125 µM"

[[record]]
structure_string = "O=C(N[C@@H](Cc1ccccc1)C(=O)Nc1ccc(Cl)cc1)c1cc(Cl)ccc1O"
property_measured = "MIC"
experimental_result = "> 125 µM"

[[record]]
structure_string = "C[C@H](NC(=O)c1cc(Cl)ccc1O)C(=O)Nc1cccc(Cl)c1"
property_measured = "MIC"
experimental_result = "125 µM"

[[record]]
structure_string = "C[C@@H](NC(=O)c1ccc(Cl)cc1O)C(=O)Nc1ccc(Cl)cc1"
property_measured = "MIC"
experimental_result = "250 µM"

[[record]]
structure_string = "CC(C)[C@H](NC(=O)c1cc(Cl)ccc1O)C(=O)Nc1ccc(Br)cc1"
property_measured = "MIC"
experimental_result = "> 125 µM"

[[record]]
structure_string = "C[C@H](NC(=O)c1cc(Cl)ccc1O)C(=O)Nc1ccc(Cl)c(Cl)c1"
property_measured = "MIC"
experimental_result = "> 125 µM"

[[record]]
structure_string = "O=C(N[C@H](Cc1ccccc1)C(=O)Nc1ccc(Cl)cc1)c1cc(Cl)ccc1O"
property_measured = "MIC"
experimental_result = "125 µM"

[[record]]
structure_string = "CC(C)[C@H](NC(=O)c1ccc(Cl)cc1O)C(=O)Nc1ccc(Cl)cc1"
property_measured = "MIC"
experimental_result = "> 125 µM"

[[record]]
structure_string = "O=C(N[C@@H](Cc1ccccc1)C(=O)Nc1ccc(Br)cc1)c1cc(Cl)ccc1O"
property_measured = "MIC"
experimental_result = "> 500 µM"

[[record]]
structure_string = "O=C(N[C@@H](Cc1ccccc1)C(=O)Nc1ccc(Cl)c(Cl)c1)c1cc(Cl)ccc1O"
property_measured = "MIC"
experimental_result = "> 125 µM"

[[record]]
structure_string = "O=C(N[C@@H](Cc1ccccc1)C(=O)Nc1cccc(Cl)c1)c1cc(Cl)ccc1O"
property_measured = "MIC"
experimental_result = "125 µM"

[[record]]
structure_string = "C[C@H](NC(=O)c1ccc(Cl)cc1O)C(=O)Nc1ccc(Cl)cc1"
property_measured = "MIC"
experimental_result = "> 250 µM"

[[record]]
structure_string = "O=C(N[C@H](Cc1ccccc1)C(=O)Nc1ccc(Br)cc1)c1cc(Cl)ccc1O"
property_measured = "MIC"
experimental_result = "> 500 µM"

[[record]]
structure_string = "CC(C)[C@@H](NC(=O)c1ccc(Cl)cc1O)C(=O)Nc1ccc(Cl)cc1"
property_measured = "MIC"
experimental_result = "7.81 µM"

[[record]]
structure_string = "O=C(N[C@H](Cc1ccccc1)C(=O)Nc1ccc(Cl)cc1)c1ccc(Cl)cc1O"
property_measured = "MIC"
experimental_result = "> 125 µM"

[[record]]
structure_string = "O=C(CNC(=O)c1cc(Cl)ccc1O)Nc1ccc(Cl)c(Cl)c1"
property_measured = "MIC"
experimental_result = "> 125 µM"

